Target: Carbonic anhydrase 2 (Homo sapiens, UniProt P00918)
Test: DRUGMATRIX: Carbonic Anhydrase II enzyme inhibition (substrate: 4-Nitrophenyl acetate (4-NPA))
Type: tissue-based
Settings: erythrocyte; Not Active = under 50% inhibition at 10 µM
test readout: IC50

Below: 6 compounds and their reported IC50.
CO[C@@H]1[C@@H](OC)[C@H](C)[C@@](O)(CC(=O)O)O[C@H]1[C@H](C)[C@H]1O[C@@]2(CC[C@@](C)([C@H]3CC[C@@](C)([C@@H]4O[C@@H]([C@H]5O[C@](C)(O)[C@H](C)C[C@@H]5C)C[C@@H]4O[C@@H]4C[C@H](OC)[C@@H](OC)[C@H](C)O4)O3)O2)C[C@H](O)[C@H]1C [MADURAMICIN ACID] | Not Active
Oc1cccc(O)c1O [PYROGALLOL] | Not Active
CCn1cc(C(=O)O)c(=O)c2cnc(N3CCCC3)nc21 [PIROMIDIC ACID] | Not Active
C[n+]1ccc(-c2cc[n+](C)cc2)cc1.[Cl-].[Cl-] [PARAQUAT DICHLORIDE] | Not Active
C[C@H]1O[C@@H](n2cc(F)c(=O)[nH]c2=O)[C@H](O)[C@@H]1O [DOXIFLURIDINE] | Not Active
CN/C(=N\CCSCc1nc[nH]c1C)NC#N [CIMETIDINE] | Not Active

// next entry
Recall and state the measured IC50 for COc1c2occc2cc2ccc(=O)oc12 [METHOXSALEN] . Not Active

----------
Experiment: DRUGMATRIX: Calcium Channel Type L, Dihydropyridine radioligand binding (ligand: [3H] Nitrendipine)
Assay type: cell membranes, Rattus norvegicus, Wistar, Cerebral cortex, Membrane
Settings: Not Active = under 50% inhibition at 10 µM
test readout: IC50

MANGANESE CHLORIDE ANHYDROUS | Not Active
GADOPENTETATE DIMEGLUMINE | Not Active
GENTAMICIN | Not Active
NYSTATIN | Not Active
AURANOFIN | Not Active

// for each substance below, give its IC50
1. GRAMICIDIN
2. SODIUM ORTHOVANAD

["Not Active", "Not Active"]

----------
Assay: DRUGMATRIX: Purinergic P2X radioligand binding (ligand: [3H] alpha, beta-Methylene-ATP)
Assay type: cell membranes, Oryctolagus cuniculus, New Zealand albino, Urinary bladder, Membrane
Conditions: Not Active = under 50% inhibition at 10 µM
test readout: IC50

CC(C)NCC(O)c1ccc(O)c(O)c1 (centres undefined) [ISOPROTERENOL] | Not Active
CC(C)NCC(O)c1ccc(NS(C)(=O)=O)cc1 (centres undefined) [SOTALOL] | Not Active
CCCCOc1cc(CC2CNC(=O)N2)ccc1OC (centres undefined) [RO-201724] | Not Active
CC(=O)[C@H]1[C@H](C#N)C[C@H]2[C@@H]3CC=C4C[C@@H](O)CC[C@]4(C)[C@H]3CC[C@@]21C [PREGNENOLONE CARBONITRILE] | Not Active

----------
Test: DRUGMATRIX: Tumor Necrosis Factor (TNF), Non-Selective radioligand binding (ligand: [125I] TNF-alpha)
Format: cell membranes, Membrane
Details: u-937; Not Active = under 50% inhibition at 10 µM
test readout: IC50

Below: 8 molecules and their reported IC50.
C[C@]12C=CC(=O)C=C1CC[C@@H]1[C@@H]2[C@@H](O)C[C@@]2(C)[C@H]1CC[C@]2(O)C(=O)CO | Not Active
O=C(Oc1ccccc1C(=O)O)c1ccccc1O [SALSALATE] | Not Active
CC(C)c1cccc(C(C)C)c1O | Not Active
CC(C)NCC(O)c1ccc(O)c(O)c1 (configuration not stated) | Not Active
Cn1c(=O)c2nc[nH]c2n(C)c1=O.O | Not Active
COc1cc(N)c(Cl)cc1C(=O)NC1CCN(CCCOc2ccc(F)cc2)CC1OC (configuration not stated) [CISAPRIDE] | Not Active
C[C@@H]1C[C@H]2[C@@H]3CCC4=CC(=O)C=C[C@]4(C)[C@@]3(F)[C@@H](O)C[C@]2(C)[C@@]1(O)C(=O)CO | Not Active
COc1ccc2[nH]cc(CCNC(C)=O)c2c1 | Not Active

// for each molecule below, give its IC50
1. NC1CCN(c2nc3c(cc2F)c(=O)c(C(=O)O)cn3-c2ccc(F)cc2F)C1 (configuration not stated)
2. NCCCC(O)(P(=O)(O)O)P(=O)(O)O
3. CN1[C@@H]2CC[C@H]1C[C@@H](OC(=O)C(CO)c1ccccc1)C2 (some centres not stated)
4. Cc1c(OCC(F)(F)F)ccnc1C[S+]([O-])c1nc2ccccc2[nH]1 (configuration not stated)
5. CC1(C)S[C@@H]2[C@H](NC(=O)[C@H](N)c3ccccc3)C(=O)N2[C@H]1C(=O)O

1. Not Active
2. Not Active
3. Not Active
4. Not Active
5. Not Active

// for each molecule below, give its IC50
1. CC[C@H]1CN2CCc3cc(OC)c(OC)cc3[C@@H]2C[C@@H]1C[C@H]1NCCc2cc(OC)c(OC)cc21
2. O=C(O)c1cn(-c2ccc(F)cc2)c2cc(N3CCNCC3)c(F)cc2c1=O
3. COc1ccc2cc3[n+](cc2c1OC)CCc1cc2c(cc1-3)OCO2.[Cl-] [BERBERINE CHLORIDE]

1. Not Active
2. Not Active
3. Not Active

Recall and state the measured IC50 for Cn1c(=O)c2[nH]cnc2n(C)c1=O.Cn1c(=O)c2[nH]cnc2n(C)c1=O.NCCN . Not Active
